# PROTOCOL TEXT: Half life in rat at 5 mg/kg, po
# Format: ADME, organism-based
# RUN PARAMETERS: in vivo
QUANTITY KIND: half-life (h)

INSERT INTO assay_data (structure_string, units_text, value_measured) VALUES
  ('CNC(=O)c1ccc(-c2cc(Cl)cc(Cl)c2Cl)c(N)n1', 'h', 4.6);

----------
# PROTOCOL TEXT: Volume of distribution in rat at 1 mg/kg, iv
# Format: ADME, organism-based
# RUN PARAMETERS: in vivo
QUANTITY KIND: Vd (L/kg)

INSERT INTO results (structure_string, quantity_kind, units_text, value_measured) VALUES
  ('COc1ccc(Cl)c(-c2ccc(NC(=O)c3ccnn3C)nc2N)c1', 'Vd', 'L/kg', 2.25);

----------
# PROTOCOL TEXT: Half life in dog at 0.1 mg/kg, iv
# Type: ADME, organism-based, Canis lupus familiaris
# RUN PARAMETERS: in vivo
QUANTITY KIND: half-life (h)

INSERT INTO measurements (structure_string, quantity_kind, value_measured) VALUES
  ('Cc1nocc1C(=O)Nc1ccc(-c2ccccc2OC(F)(F)F)c(N)n1', 'half-life', 9.7);

----------
# PROTOCOL TEXT: Plasma clearance in rat at 2 mg/kg, po
# Assay type: ADME, organism-based
QUANTITY KIND: CL/F (mL/min/kg)

INSERT INTO assay_data (compound, quantity_kind, value_measured) VALUES
  ('COc1ccc(Cl)c(-c2ccc(NC(=O)c3ccnn3C)nc2N)c1 [PF-04531083]', 'CL/F', 11.4);

----------
# PROTOCOL TEXT: Intrinsic clearance in rat liver microsomes
# Assay type: ADME
# RUN PARAMETERS: read-out: CLH
Recorded measurements of microsomal CLint, one per entry
QUANTITY KIND: microsomal CLint (µL/min/mg)

INSERT INTO results (structure_string, relation_operator, value_measured) VALUES
  ('CNC(=O)c1ccc(-c2cc(Cl)cc(Cl)c2Cl)c(N)n1', '<', 9),
  ('CC(=O)Nc1ccc(-c2cc(Cl)cc(Cl)c2Cl)c(N)n1', '=', 29);

----------
# PROTOCOL TEXT: Oral bioavailability in rat at 5 mg/kg
# Format: ADME, organism-based
# RUN PARAMETERS: in vivo
QUANTITY KIND: bioavailability (%)

INSERT INTO assay_data (structure_string, quantity_kind, value_measured) VALUES
  ('CNC(=O)c1ccc(-c2cc(Cl)cc(Cl)c2Cl)c(N)n1', 'bioavailability', 91);

----------
Recorded measurements of IC50, one per entry
# TARGET OR SYSTEM: Sodium channel protein type 5 subunit alpha (Homo sapiens, UniProt Q14524)
# Sequence (Q14524 whole entry): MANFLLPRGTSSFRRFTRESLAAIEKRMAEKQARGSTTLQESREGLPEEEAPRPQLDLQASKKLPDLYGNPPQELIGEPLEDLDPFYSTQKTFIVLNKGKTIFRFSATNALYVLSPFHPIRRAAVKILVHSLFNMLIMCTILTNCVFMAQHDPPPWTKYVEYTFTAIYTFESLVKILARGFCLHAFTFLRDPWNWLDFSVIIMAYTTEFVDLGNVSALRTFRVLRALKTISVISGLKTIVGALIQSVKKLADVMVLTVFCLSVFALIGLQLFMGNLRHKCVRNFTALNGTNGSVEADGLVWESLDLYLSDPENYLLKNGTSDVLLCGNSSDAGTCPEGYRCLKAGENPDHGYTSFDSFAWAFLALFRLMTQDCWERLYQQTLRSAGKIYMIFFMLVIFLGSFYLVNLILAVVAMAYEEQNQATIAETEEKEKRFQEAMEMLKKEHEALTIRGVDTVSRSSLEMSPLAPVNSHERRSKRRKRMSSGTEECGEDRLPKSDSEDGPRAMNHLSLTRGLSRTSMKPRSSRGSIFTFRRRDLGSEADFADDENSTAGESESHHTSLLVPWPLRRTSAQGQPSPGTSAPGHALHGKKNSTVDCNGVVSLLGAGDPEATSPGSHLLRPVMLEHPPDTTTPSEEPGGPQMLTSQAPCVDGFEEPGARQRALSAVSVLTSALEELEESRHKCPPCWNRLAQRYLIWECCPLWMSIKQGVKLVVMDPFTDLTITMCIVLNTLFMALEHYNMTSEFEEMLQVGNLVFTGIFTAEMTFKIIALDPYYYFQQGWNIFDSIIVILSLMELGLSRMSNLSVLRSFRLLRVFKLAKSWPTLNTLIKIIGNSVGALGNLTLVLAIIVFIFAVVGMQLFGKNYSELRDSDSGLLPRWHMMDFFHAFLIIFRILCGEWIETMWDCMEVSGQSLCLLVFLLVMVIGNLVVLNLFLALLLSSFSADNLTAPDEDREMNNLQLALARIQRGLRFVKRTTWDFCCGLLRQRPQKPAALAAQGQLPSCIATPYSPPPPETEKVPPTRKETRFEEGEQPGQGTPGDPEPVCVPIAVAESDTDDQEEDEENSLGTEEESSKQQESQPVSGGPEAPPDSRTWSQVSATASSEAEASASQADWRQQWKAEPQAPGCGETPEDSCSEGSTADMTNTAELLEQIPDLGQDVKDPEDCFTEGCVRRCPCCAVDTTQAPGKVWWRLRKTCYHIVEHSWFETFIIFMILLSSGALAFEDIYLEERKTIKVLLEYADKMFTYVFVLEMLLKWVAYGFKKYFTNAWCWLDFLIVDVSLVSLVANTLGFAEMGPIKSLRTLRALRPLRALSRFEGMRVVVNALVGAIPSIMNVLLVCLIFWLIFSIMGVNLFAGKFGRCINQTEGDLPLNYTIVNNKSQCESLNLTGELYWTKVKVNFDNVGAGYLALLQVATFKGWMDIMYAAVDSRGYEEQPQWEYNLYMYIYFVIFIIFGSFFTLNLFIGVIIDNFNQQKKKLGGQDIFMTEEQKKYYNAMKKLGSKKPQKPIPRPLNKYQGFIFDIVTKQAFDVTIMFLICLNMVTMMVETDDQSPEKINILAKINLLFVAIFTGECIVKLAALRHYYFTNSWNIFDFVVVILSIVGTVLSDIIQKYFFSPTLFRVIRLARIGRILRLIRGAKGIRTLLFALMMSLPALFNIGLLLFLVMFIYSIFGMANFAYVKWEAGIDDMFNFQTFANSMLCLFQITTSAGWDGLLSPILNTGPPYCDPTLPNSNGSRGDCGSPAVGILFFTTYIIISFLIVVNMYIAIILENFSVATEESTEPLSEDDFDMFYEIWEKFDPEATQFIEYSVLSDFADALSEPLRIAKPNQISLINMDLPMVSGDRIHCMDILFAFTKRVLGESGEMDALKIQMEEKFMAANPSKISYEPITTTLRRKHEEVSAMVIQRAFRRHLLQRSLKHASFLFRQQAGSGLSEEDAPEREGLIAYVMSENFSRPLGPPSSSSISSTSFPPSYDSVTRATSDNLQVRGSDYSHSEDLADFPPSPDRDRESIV
# PROTOCOL TEXT: Inhibition of human Nav1.5 expressed in HEK293 cells by IonWorks Quattro selectivity assay
QUANTITY KIND: IC50

INSERT INTO results (structure_string, value_measured) VALUES
  ('CNC(=O)c1ccc(-c2cc(Cl)cc(Cl)c2Cl)c(N)n1', '9 µM'),
  ('COc1ccc(Cl)c(-c2ccc(NC(=O)c3ccnn3C)nc2N)c1', '37 µM');

----------
# TARGET OR SYSTEM: Sodium channel protein type 2 subunit alpha (Homo sapiens, UniProt Q99250)
# Sequence (Q99250 whole entry): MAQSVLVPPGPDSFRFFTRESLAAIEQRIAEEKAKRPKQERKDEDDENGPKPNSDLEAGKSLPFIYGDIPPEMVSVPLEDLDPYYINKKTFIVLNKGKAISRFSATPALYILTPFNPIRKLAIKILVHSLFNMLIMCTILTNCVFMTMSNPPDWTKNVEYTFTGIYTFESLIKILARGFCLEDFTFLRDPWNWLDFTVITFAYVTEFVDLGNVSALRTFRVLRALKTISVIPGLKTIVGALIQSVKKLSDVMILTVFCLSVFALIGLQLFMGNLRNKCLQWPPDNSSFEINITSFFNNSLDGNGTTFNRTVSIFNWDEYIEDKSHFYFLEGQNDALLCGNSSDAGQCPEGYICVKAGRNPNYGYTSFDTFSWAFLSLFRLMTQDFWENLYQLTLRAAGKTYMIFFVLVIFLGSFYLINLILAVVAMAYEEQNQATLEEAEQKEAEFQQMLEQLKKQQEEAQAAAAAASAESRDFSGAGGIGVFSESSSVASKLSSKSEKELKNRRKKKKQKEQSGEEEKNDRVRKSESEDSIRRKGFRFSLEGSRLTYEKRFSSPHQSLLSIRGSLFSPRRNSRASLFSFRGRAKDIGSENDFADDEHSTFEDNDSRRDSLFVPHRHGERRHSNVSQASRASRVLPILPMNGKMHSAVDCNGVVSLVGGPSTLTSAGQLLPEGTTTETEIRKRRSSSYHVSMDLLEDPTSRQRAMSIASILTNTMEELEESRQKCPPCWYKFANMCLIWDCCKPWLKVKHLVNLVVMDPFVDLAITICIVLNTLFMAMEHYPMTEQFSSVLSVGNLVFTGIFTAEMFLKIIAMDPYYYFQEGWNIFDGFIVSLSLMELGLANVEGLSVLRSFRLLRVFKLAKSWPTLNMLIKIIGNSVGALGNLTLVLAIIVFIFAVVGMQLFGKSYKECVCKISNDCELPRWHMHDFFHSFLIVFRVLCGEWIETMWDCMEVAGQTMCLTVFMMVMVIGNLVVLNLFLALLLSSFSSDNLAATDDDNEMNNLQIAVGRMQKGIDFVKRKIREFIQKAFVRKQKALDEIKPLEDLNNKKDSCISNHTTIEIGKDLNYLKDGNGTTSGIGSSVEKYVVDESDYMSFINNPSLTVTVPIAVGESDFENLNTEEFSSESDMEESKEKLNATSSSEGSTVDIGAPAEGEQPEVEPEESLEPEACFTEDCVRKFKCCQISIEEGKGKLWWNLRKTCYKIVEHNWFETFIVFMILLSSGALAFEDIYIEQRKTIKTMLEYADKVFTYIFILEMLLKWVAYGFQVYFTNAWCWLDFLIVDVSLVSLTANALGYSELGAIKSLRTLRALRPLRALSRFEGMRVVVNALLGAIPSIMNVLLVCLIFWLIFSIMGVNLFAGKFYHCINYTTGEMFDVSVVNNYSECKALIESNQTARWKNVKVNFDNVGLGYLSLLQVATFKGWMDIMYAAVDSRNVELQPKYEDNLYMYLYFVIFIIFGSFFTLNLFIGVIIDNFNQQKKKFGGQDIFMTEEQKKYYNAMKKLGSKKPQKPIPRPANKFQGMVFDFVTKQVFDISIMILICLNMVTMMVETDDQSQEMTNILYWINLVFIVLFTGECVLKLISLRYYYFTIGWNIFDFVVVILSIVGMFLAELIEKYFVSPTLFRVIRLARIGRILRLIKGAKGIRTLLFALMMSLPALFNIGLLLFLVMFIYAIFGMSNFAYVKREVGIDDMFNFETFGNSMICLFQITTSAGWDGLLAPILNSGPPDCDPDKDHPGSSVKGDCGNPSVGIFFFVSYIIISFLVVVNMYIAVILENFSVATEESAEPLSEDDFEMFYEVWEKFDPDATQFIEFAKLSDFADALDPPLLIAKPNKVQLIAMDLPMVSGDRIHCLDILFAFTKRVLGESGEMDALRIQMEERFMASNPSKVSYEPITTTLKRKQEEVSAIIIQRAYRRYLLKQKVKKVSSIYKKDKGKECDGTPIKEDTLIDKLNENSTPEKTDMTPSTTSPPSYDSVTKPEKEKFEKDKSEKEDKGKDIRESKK
# PROTOCOL TEXT: Inhibition of human Nav1.2 expressed in SHSY5Y cells assessed as reduction in blue fluorescent signal by VSP-FRET assay
# Type: cell-based, SH-SY5Y
pIC50: −log10 of the molar value.
QUANTITY KIND: pIC50

INSERT INTO measurements (compound, value_measured) VALUES
  ('Nc1nnc(-c2cccc(Cl)c2Cl)c(N)n1 [LAMOTRIGINE]', 4.77),
  ('CNC(=O)c1ccc(-c2cc(Cl)cc(Cl)c2Cl)c(N)n1', 4.85),
  ('CNC(=O)c1cnc(N)c(-c2cc(Cl)cc(Cl)c2Cl)c1', 5.16),
  ('CC(=O)Nc1ccc(-c2cc(Cl)cc(Cl)c2Cl)c(N)n1', 5.46);
